experiment: SRB cytotoxicity, PC-3 prostate cells; assay type: cell-based; conditions: human, PC-3 prostate tumor cells
parameter_measured: inhibition at 50 μM (%)
The reply should contain only the number, in %.

inhibition at 50 μM recorded for this molecule, "C=C(C)[C@@H]1CC[C@]2(C)CC[C@]3(C)[C@H](CC[C@@H]4[C@@]5(C)CC[C@H](O)C(C)(C)[C@@H]5CC[C@]43C)[C@@H]12" , is 50.7

* * *

Measured inhibition at 50 μM of individual entries
assay: SRB cytotoxicity, MCF-7 breast cells; type: cell-based; details: human, MCF-7 breast tumor cells
Numeric answer only, unit % assumed.

The recorded inhibition at 50 μM for entry "CC(C)=CCC[C@@H](C)[C@@H]1CC[C@]2(C)C3=C(CC[C@@]12C)[C@@]1(C)CC[C@H](O)C(C)(C)[C@@H]1CC3" equals 36.6

Please examine the following record next.
Short answer for "C=C(C)[C@@H]1CC[C@]2(C)CC[C@]3(C)[C@H](CC[C@@H]4[C@@]5(C)CC[C@H](O)C(C)(C)[C@@H]5CC[C@]43C)[C@@H]12" : inhibition at 50 μM was 22.3
